Cited source for all entries: ChEMBL document CHEMBL3822450

Experiment: cells
Conditions: Homo sapiens, MCF-10A, 24 h
With a cut-off of 200 µM, any IC50 strictly below it is called label 1; any IC50 meeting it or above is called label 0.

Completed entries (count: 8):
>  <smi>
COc1cc(/C=C/C(=O)OCCc2ccc(O)c(N)c2)cc(OC)c1O

>  <classification>
label 1

$$$$
>  <smi>
COc1cc(/C=C/C(=O)OCCc2ccc(O)c(O)c2)ccc1N

>  <classification>
label 0

$$$$
>  <smi>
COc1cc(/C=C/C(=O)OCCc2ccc(N)nc2)ccc1O

>  <classification>
label 0

$$$$
>  <smi>
COc1cc(/C=C\C(=O)OCCc2ccc(OC)c(OC)c2)ccc1O

>  <classification>
label 0

$$$$
>  <smi>
COc1ccc(CCOC(=O)/C=C/c2cc(OC)c(O)c(OC)c2)cc1OC

>  <classification>
label 0

$$$$
>  <smi>
COc1cc(/C=C/C(=O)OCc2cc(OC)c(O)c(OC)c2)cc(OC)c1O

>  <classification>
label 1

$$$$
>  <smi>
COc1cc(/C=C/C(=O)OCCCc2ccc(O)cc2)ccc1O

>  <classification>
label 1

$$$$
>  <smi>
COc1cc(/C=C/C(=O)OCc2cc(OC)c(O)c(OC)c2)ccc1O

>  <classification>
label 1

$$$$

Q: is_below(IC50, 200 µM) for COc1cc(/C=C/C(=O)OCCc2ccc(N)nc2)cc(OC)c1O ?
Result: label 0

Q: Criterion: IC50 strictly below 200 µM. Is it met by COc1cc(/C=C/C(=O)OCCc2ccc(OC)c(OC)c2)ccc1O ?
Result: label 0
